- PROTOCOL DETAILS: Toxicity in zebrafish embryos assessed as mortality rate at 4 uM after 72 hrs (reference value: 3.33 +/- 4.71%)
- Parameters: species or system Danio rerio
- PROTOCOL CONDITIONS: in vivo
ASSAY METRIC: mortality at 72 h, 4 µM (%)
One number for each entry, in %.

Entry "C=C(C)[C@@H]1CC[C@]2(COC(=O)c3nc(C)c(C)nc3C)CC[C@]3(C)[C@H](CC[C@@H]4[C@@]5(C)CC[C@H](OC(=O)CN)C(C)(C)[C@@H]5CC[C@]43C)[C@@H]12" ; mortality at 72 h, 4 µM = 8.33
